Examples of molecules with documented log10(EC50) follow.
Target: human GPCR sphingosine 1-phosphate receptor 2 (Homo sapiens, UniProt O95136)
Construct: host or cells: CHO
Sequence (O95136 whole entry): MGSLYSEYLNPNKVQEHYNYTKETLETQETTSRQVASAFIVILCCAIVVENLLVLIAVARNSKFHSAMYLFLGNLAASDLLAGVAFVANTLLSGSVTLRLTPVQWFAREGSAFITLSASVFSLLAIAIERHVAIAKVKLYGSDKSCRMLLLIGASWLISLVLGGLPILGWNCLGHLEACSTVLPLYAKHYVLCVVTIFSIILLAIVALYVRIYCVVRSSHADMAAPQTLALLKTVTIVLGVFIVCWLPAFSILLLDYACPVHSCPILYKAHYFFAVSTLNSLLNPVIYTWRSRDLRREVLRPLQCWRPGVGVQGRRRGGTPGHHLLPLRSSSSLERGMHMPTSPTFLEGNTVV
Assay: S1PR2 antagonist Ca2+ flux assay
Format: cell-based
Conditions: antagonist mode, CHO-S1PR2 cells, S1P at EC80, Ca2+ fluorescence; read-out: S1P2 EC50 (nM), S1P2 antagonist EC50
In plain terms, each number is the log10 of measured EC50 in nM.

Record excerpt, results attached:
N#Cc1cc2[nH]c(Cc3nn(CC(=O)N4CCN(CCO)CC4)c(=O)c4ccccc34)nc2cc1OCC(F)F | 2.59
O=c1c2ccccc2c(Cc2nc3cc(Cl)c(OC(F)(F)F)cc3[nH]2)nn1CC1CNCCO1 (stereo not drawn) | 3.62
CS(=O)(=O)NC(=O)Cn1nc(Cc2nc3cc(OCC4(C#N)CC4)c(Cl)cc3[nH]2)c2ccccc2c1=O | 1.01
CCOc1cc2[nH]c(Cc3nn(CC(=O)N4CCOCC4)c(=O)c4ccccc34)nc2cc1C#N | 1.63
N#Cc1cc2nn(Cc3nn(CC(=O)O)c(=O)c4ccccc34)cc2cc1OCC1CC1 | 1.57
CC1(C)CCN(C(=O)Cn2nc(Cc3nc4cc(OCC(F)F)c(C#N)cc4[nH]3)c3ccccc3c2=O)C1 | 1.23

Q: For the molecule COc1ccc2c(Cn3cc4cc(OCC5CC5)c(Cl)cc4n3)nn(C(C)C(=O)O)c(=O)c2c1 (stereo not drawn) , give its measured log10(EC50) value.
Result: 1.73

Q: For the molecule N#CC1(COc2cc3nc(Cc4nn(CC(=O)O)c(=O)c5ccccc45)[nH]c3cc2Cl)CC1 , give its measured log10(EC50) value.
Result: 1.17

Q: For the molecule O=C(O)c1nn(Cc2nc3cc(OCC4CC4)c(C(F)(F)F)cc3[nH]2)c2ccccc2c1=O , give its measured log10(EC50) value.
Result: 0.48

Q: For the molecule O=C(O)Cn1nc(Cc2nc3cc(Cl)c(OCC4CC4)c(F)c3[nH]2)c2ccccc2c1=O , give its measured log10(EC50) value.
Result: 1.40

Q: For the molecule O=C(O)Cn1nc(Cn2[nH]c3cc(OCC4CC4)c(Cl)cc3c2=O)c2ccccc2c1=O , give its measured log10(EC50) value.
Result: 1.00

Q: For the molecule CCOc1cc2[nH]c(Cc3nn(CC(=O)N4CCOCC4)c(=O)c4ccccc34)nc2cc1C(F)(F)F , give its measured log10(EC50) value.
Result: 1.08

Q: For the molecule O=c1c2ccccc2c(Cc2nc3cc(Cl)c(OC(F)(F)F)cc3[nH]2)nn1CC1CCNCC1 , give its measured log10(EC50) value.
Result: 2.92

Q: For the molecule N#Cc1cc2nc(Cc3nn(CC(=O)N4CCOCC4)c(=O)c4ccccc34)cn2cc1OCC(F)F , give its measured log10(EC50) value.
Result: 4.06

Q: For the molecule N#Cc1cc2[nH]c(Cc3nn(CC(=O)N4CCOCC4)c(=O)c4ccccc34)nc2c(Cl)c1OCC(F)F , give its measured log10(EC50) value.
Result: 3.37
